Give pIC50 for every item shown.
Scale note: pIC50 = -log10(concentration in M).

[ask] Look up and report pIC50, with C-C chemokine receptor type 5 (Homo sapiens) as system, for Cc1nc2ccccc2n1[C@@H]1C[C@H]2COC[C@@H](C1)N2CC[C@H](NC(=O)C1CCC1)c1ccccc1
Sequence (P51681 whole entry): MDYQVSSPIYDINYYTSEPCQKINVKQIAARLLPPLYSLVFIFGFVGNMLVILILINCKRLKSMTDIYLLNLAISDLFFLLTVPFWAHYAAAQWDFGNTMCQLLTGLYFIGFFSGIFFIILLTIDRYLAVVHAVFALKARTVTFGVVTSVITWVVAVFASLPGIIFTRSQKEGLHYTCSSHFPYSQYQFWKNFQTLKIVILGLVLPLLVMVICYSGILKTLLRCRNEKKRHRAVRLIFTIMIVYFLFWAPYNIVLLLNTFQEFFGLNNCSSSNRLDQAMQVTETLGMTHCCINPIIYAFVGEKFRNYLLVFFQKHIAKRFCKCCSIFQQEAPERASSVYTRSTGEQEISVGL
[reply] 8.05

[ask] Look up and report pIC50, with C-C chemokine receptor type 5 (Homo sapiens) as system, for Cc1nc2ccccc2n1[C@@H]1C[C@@H](C)N(CC[C@H](NC(=O)C2CCC2)c2ccccc2)[C@@H](C)C1
[reply] 8.10

[ask] Look up and report pIC50, with C-C chemokine receptor type 5 (Homo sapiens) as system, for Cc1nc2ccccc2n1C1(C)CCN(CC[C@H](NC(=O)C2CCC2)c2ccccc2)CC1
[reply] 8.92

[ask] Look up and report pIC50, with C-C chemokine receptor type 5 (Homo sapiens) as system, for Cc1nc2ccccc2n1[C@@H]1C[C@H]2CSC[C@@H](C1)N2CC[C@H](NC(=O)C1CCC1)c1ccccc1
[reply] 7.67

[ask] Look up and report pIC50, with C-C chemokine receptor type 5 (Homo sapiens) as system, for Cc1nc2ccccc2n1[C@H]1C[C@H]2COC[C@@H](C1)N2CC[C@H](NC(=O)C1CCC1)c1ccccc1
[reply] 7.40

* * *

test: Dissociation constant, pKa of the compound; assay type: physicochemical
ENDPOINT NAME: pKa
Would you mind answering with just the numeric figure?

[ask] Report pKa for Cc1nc2ccccc2n1[C@@H]1C[C@H]2COC[C@@H](C1)N2CC[C@H](NC(=O)C1CCC1)c1ccccc1
[reply] 6

[ask] Report pKa for Cc1nc2ccccc2n1[C@H]1C[C@H]2CC[C@@H](C1)N2CC[C@H](NC(=O)C1CCC1)c1ccccc1
[reply] 7.8

* * *

ENDPOINT NAME: Ki (nM)
Lab book: enter the figure in nM, no units written.

[ask] Look up and report Ki, with Voltage-gated inwardly rectifying potassium channel KCNH2 (Homo sapiens, UniProt Q12809) as system, for Cc1nc2ccccc2n1[C@@H]1C[C@H]2COC[C@@H](C1)N2CC[C@H](NC(=O)C1CCC1)c1ccccc1
Sequence (Q12809 whole entry): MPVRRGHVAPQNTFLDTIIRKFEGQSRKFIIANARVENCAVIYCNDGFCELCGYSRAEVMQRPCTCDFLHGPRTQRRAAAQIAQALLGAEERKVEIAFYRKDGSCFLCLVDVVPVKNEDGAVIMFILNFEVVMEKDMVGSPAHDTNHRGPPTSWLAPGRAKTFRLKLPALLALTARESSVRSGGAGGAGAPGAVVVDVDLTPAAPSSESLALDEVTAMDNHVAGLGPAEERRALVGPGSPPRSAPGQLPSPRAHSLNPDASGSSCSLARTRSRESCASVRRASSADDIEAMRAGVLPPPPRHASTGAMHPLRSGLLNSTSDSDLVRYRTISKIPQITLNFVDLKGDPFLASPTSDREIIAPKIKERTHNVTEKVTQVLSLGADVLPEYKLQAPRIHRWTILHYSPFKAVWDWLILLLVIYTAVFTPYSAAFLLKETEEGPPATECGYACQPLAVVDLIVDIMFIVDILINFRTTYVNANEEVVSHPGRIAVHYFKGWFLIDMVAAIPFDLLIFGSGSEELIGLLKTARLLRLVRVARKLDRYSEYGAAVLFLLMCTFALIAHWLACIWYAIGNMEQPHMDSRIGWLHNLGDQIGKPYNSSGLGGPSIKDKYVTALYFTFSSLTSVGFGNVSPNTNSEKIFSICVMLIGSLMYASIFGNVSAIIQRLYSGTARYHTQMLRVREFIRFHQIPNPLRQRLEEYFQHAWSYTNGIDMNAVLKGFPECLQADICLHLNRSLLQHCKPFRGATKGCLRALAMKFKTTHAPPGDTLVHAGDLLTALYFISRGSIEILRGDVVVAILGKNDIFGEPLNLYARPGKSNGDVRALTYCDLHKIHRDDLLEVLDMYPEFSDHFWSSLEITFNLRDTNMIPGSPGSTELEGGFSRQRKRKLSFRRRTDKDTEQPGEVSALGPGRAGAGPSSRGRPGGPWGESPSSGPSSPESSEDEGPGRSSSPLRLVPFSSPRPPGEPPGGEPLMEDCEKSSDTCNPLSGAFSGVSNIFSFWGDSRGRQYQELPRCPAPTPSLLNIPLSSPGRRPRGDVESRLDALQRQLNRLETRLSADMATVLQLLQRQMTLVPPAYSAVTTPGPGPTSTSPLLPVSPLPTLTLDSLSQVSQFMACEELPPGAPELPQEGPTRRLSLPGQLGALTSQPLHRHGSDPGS
[reply] 42

* * *

target: Voltage-gated inwardly rectifying potassium channel KCNH2 (Homo sapiens, UniProt Q12809); experiment: Inhibition of human ERG

{"columns": ["SMILES STRUCTURE", "inhibition (INH)"],
 "data": [
  ["Cc1nc2ccccc2n1C1CN(CC[C@H](NC(=O)C2CCC2)c2ccccc2)C1", "Active"],
  ["Cc1nc2ccccc2n1[C@@H]1C[C@H]2COC[C@@H](C1)N2CC[C@H](NC(=O)C1CCC1)c1ccccc1", "Active"],
  ["Cc1nc2ccccc2n1[C@H]1C[C@H]2COC[C@@H](C1)N2CC[C@H](NC(=O)C1CCC1)c1ccccc1", "Active"]
]}
